- tgt: TEK (human)
- procedureText: KINOMEscan competition binding
- conditionParameters: compound 10.0 µM
Listed compounds paired with reported kinase still bound, per cent of control
Lab book: enter the figure in %, no units written.

Please review the following examples before continuing.
CCOc1cc(N2CCC(O)CC2)ccc1Nc1ncc2c(n1)N(C)c1ccccc1C(=O)N2C :: 100
CCN1CCN(Cc2ccc(NC(=O)c3ccc(C)c(/C=C/c4cnc5[nH]ccc5c4OC)c3)cc2C(F)(F)F)CC1 :: 0.1
CCCS(=O)(=O)Nc1ccc(F)c(C(=O)c2c[nH]c3ncc(Cl)cc23)c1F :: 100

Let's switch to this compound now.
Please fill in: kinase still bound, per cent of control reported for O=c1[nH]c2ccccc2n1C1CCN(Cc2ccc(-c3nc4cc5[nH]cnc5cc4nc3-c3ccccc3)cc2)CC1 = 85
